pKd: recorded values
target: T1, mouse PCSK9 (mouse, UniProt Q80W65 35-694, limits assumed); experiment: SPR Biacore 3000, captured IgG, mPCSK9 injected, pH 5.5
T1 construct: also called mPCSK9; msPCK9
T1 sequence (Q80W65 35-694 limits assumed): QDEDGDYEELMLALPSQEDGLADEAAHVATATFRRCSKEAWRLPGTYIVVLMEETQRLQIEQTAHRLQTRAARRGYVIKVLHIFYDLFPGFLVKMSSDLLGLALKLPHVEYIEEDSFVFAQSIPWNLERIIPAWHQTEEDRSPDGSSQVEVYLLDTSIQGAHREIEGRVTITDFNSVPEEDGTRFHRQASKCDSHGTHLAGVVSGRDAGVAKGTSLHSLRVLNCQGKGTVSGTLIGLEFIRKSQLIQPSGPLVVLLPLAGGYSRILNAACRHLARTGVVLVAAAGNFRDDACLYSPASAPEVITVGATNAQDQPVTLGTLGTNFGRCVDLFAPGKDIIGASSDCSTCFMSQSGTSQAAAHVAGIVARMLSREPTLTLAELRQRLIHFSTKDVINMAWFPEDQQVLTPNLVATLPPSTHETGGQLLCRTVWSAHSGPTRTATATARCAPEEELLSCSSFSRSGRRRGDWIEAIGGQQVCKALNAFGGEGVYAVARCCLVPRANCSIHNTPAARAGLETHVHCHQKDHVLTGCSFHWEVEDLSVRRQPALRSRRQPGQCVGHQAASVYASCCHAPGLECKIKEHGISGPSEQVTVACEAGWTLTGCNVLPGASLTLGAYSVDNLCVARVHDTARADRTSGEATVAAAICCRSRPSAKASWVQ
Here pKd is given on a logarithmic scale as minus log10 of the concentration in mol/L.

Here's what some known entries look like.
binder	readoutType	numericResult
5L1724H23 (antibody, V domains shown, Triple histidine mutant of h5A10; Only CDRs printed; Full-length IgG) VH: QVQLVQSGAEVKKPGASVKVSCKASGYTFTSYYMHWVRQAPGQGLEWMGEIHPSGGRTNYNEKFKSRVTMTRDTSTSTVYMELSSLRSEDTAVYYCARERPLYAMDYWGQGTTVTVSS VL: DIQMTQSPSSLSASVGDRVTITCKASQDVHTAVAWYQQKPGKAPKLLIYSASHRYTGVPSRFSGSGSGTDFTFTISSLQPEDIATYYCQQRYSTPRTFGQGTKLEIK	pKd	7.13
5L1721H23 (antibody, V domains shown, Triple histidine mutant of h5A10; Only CDRs printed; Full-length IgG) VH: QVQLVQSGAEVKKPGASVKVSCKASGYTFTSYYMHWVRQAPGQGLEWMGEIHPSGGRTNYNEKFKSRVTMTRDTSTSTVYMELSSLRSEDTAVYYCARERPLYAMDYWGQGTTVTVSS VL: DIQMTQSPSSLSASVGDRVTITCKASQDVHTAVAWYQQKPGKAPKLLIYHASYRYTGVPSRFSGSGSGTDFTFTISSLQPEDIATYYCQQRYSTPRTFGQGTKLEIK	pKd	6.24
5L1724H23_6L3H3 (antibody, V domains shown, Only CDRs printed; Full-length IgG) VH: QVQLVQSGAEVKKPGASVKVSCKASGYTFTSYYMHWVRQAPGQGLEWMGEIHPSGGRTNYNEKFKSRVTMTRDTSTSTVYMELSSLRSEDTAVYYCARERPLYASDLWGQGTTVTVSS VL: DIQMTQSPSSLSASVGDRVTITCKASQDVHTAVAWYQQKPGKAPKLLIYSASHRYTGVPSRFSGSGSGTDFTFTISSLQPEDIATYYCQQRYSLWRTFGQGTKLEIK	pKd	6.90

Read the next record carefully.
Read off the recorded pKd for 6L21H2335 (antibody, V domains shown) VH: QVQLVQSGAEVKKPGASVKVSCKASGYTFTSYYMHWVRQAPGQGLEWMGEIHPFGGRTNYNEKFKSRVTMTRDTSTSTVYMELSSLRSEDTAVYYCARERPLHASDLWGQGTTVTVSS VL: DIQMTQSPSSLSASVGDRVTITCRASQGISSALAWYQQKPGKAPKLLIYHASYRYTGVPSRFSGSGSGTDFTFTISSLQPEDIATYYCQQRYSLWRTFGQGTKLEIK 6.35

Recorded values, source patent US20150266974A1.
